tested on: HT29 colon; test: NCI-60 one-dose screen, 48 h (100 = growth as untreated, 0 = no growth, -100 = all killed); details: 10 µM unless noted
About 83,000 compounds went through this panel and 20% of them were active in at least one assay; those are over-represented in the sample as a whole.
measuredMetric: growth (%)
The answer is to be given in %; state only the numeric part.

Entry FC(F)(F)c1ccc(/C=N/Nc2nnc3n2N=C(c2ccc(Cl)cc2)CS3)cc1 , growth reported as 70.1

Entry Cc1ccc(NC(=O)c2nc(S(C)(=O)=O)oc2-c2ccc(F)cc2)cc1Nc1ccc2ncn(C)c(=O)c2c1 , growth reported as 15.8

Entry CCOC(=O)C1=C(C)NC(SCc2nnc(-c3ccc(Cl)cc3)o2)=NC1c1ccc(Br)cc1 (stereo not drawn) , growth reported as 78.7

* * *

system: MALME-3M melanoma; assay: NCI-60 one-dose screen, 48 h (100 = growth as untreated, 0 = no growth, -100 = all killed); settings: 10 µM unless noted
The panel holds about 83,000 compounds, 20% with a hit somewhere; the sample as a whole holds those more often.
measuredMetric: growth (%)
The answer is to be given in %; state only the numeric part.

Field growth (system: MALME-3M melanoma) for entry C=CCn1c(SCC(=O)Nc2ccc(C(=O)/C=C/c3ccc(Cl)cc3)cc2)nnc1-c1ccc(Cl)cc1 = 93.2

Field growth (system: MALME-3M melanoma) for entry COc1cc(/C=C/c2ccc3c(Br)cc(Br)c(O)c3n2)ccc1O = 53.7

Field growth (system: MALME-3M melanoma) for entry CC(C)NC(=O)OCC#CCOC(=O)NC(C)C = 92.6

Field growth (system: MALME-3M melanoma) for entry CSCCC1NC(=O)C(C(C)=Nc2ccccc2)=C1O (stereo not drawn) = 112

Field growth (system: MALME-3M melanoma) for entry CC(C)NCCCCCNc1cc(O)cc2cccnc12 = 23.8

Field growth (system: MALME-3M melanoma) for entry CC(=O)c1c(O)c(C)c(O)c2c1OC1=CC(=O)/C(=C(/C)N)C(=O)C12C (stereo not drawn) = 96.9

Field growth (system: MALME-3M melanoma) for entry CCCCNCC(O)c1cc(-c2ccc(C(F)(F)F)cc2)nc(-c2ccc(C(F)(F)F)cc2)c1 (stereo not drawn) = -41.6

Field growth (system: MALME-3M melanoma) for entry O=C(C(Br)C(Br)c1ccccc1)C(Br)C(Br)c1ccccc1 (stereo not drawn) = -69.5

Field growth (system: MALME-3M melanoma) for entry C#CC[C@@H]1C[C@]2(C)[C@H]3CC=C4[C@H]5[C@@H](C)[C@H](C)CC[C@]5(C(=O)NCCCN5CCN(CCCN)CC5)CC[C@@]4(C)[C@]3(C)CC[C@H]2C(C)(C)[C@H]1OC(C)=O = -81

Field growth (system: MALME-3M melanoma) for entry CCCc1n(Cc2ccc3ccccc3n2)cc[n+]1Cc1ccc2ccccc2n1 = 12.5

Field growth (system: MALME-3M melanoma) for entry COc1ccc(/C(=C\c2cc(OC)c(OC)c(OC)c2)C(=O)Nc2nc3ccc(Cl)cc3s2)cc1 = 93.8

Field growth (system: MALME-3M melanoma) for entry Cc1cc(C)cc(CCCCCCCCCCCCCCCCCC(=O)O)c1 = 108

Field growth (system: MALME-3M melanoma) for entry COc1ccccc1/C=N\NC(=S)Nc1ccc(F)cc1 = 65

Field growth (system: MALME-3M melanoma) for entry COc1ccc(-c2[nH]nc(N)c2-c2cc(OC)c(OC)c(OC)c2)cc1 = 25.8

Field growth (system: MALME-3M melanoma) for entry COC(=O)/C=C/c1cc(OC(C)=O)c2c(c1)[C@@H](C(=O)OC)[C@H](c1ccc(OC(C)=O)c(OC(C)=O)c1)O2 = 48.7

Field growth (system: MALME-3M melanoma) for entry Cc1nc2ccc(Nc3nc(NCCN4CCOCC4)nc(Nc4ccc(F)cc4)n3)cc2n1Cc1ccccc1 = -41.7

Field growth (system: MALME-3M melanoma) for entry COc1cc(C)cc2oc3oc(=O)c(-c4csc(-c5cc6ccccc6oc5=O)n4)cc3c(=O)c12 = 105

Field growth (system: MALME-3M melanoma) for entry CCN(CC)c1ccc2nc3c4ccccc4c(=O)cc-3n(-c3ccccc3)c2c1 = -32.3

Field growth (system: MALME-3M melanoma) for entry O=c1[nH]c2ccccc2n2cc3cccnc3c12 = 116

Field growth (system: MALME-3M melanoma) for entry CS(=O)(=O)Nc1cc(-c2cc3ncc(C#N)c(Nc4ccc(Oc5ccccc5)c(Cl)c4)c3s2)cnc1Cl = 74.5

Field growth (system: MALME-3M melanoma) for entry COc1cc(C(=O)/C=C/c2cn(-c3ccccc3)nc2-c2cccc(Nc3ccnc4cc(Cl)ccc34)c2)cc(OC)c1OC = 73

Field growth (system: MALME-3M melanoma) for entry Nc1nc(N)c2c(n1)NC(c1sc(Cl)nc1Cl)CC(c1ccccc1)=N2 (stereo not drawn) = 26.8

Field growth (system: MALME-3M melanoma) for entry CC1=NOCC(=O)N1 = 117

Field growth (system: MALME-3M melanoma) for entry CCSc1ccc([C@@H]2[C@@H](O)C(=O)N2c2cc(OC)c(OC)c(OC)c2)cc1 = 71

Field growth (system: MALME-3M melanoma) for entry COc1ccc(/C=C/C(=O)c2ccc(NC(=O)CSc3nnc(-c4ccc(OC)cc4)n3-c3ccccc3)cc2)cc1 = 96.8

Field growth (system: MALME-3M melanoma) for entry CC(C)(C)NC(=O)C(OC(=O)C1CCc2cc(F)ccc2O1)c1ccccc1Cl (stereo not drawn) = 94.4

Field growth (system: MALME-3M melanoma) for entry CCOC(=O)c1sc2nc(-c3cc4ccccc4o3)cc(-c3ccc(Cl)cc3)c2c1N = 88.5

Field growth (system: MALME-3M melanoma) for entry COc1c(B(O)O)cccc1-c1nc2c(F)cc3n[nH]c(C)c3c2c2c1CCCC2 = 55.9
